# assayComment: Cell viability (CCK-8), cytotoxicity
# experimentalContext: human, THP1 cells, Cell viability (Fig. S7a), XQ2 1250 nM
Square brackets hold non-standard residues; d marks the D form. Peptide text beside a SMILES is read from it.
measuredParameter: viability at 48 h, 1.25 µM (%)
Numbers only, in %.

Task item: Give the value of viability at 48 h, 1.25 µM reported for the following: CC(C)C[C@@H]1NC(=O)[C@H](CCCNC(=N)N)NC(=O)[C@H](C(C)C)NC(=O)[C@@H]2CCCN2C(=O)[C@@H](Cc2ccccc2)NC(=O)[C@H](CC(C)C)NC(=O)[C@H](CCCNC(=N)N)NC(=O)[C@H](C(C)C)NC(=O)[C@H](C)NC(=O)[C@@H](Cc2ccccc2)NC1=O [XQ2, Cyclo (LfAVRLfPVR)] (cyclo(L[dF]AVRL[dF]PVR))
Reply: 95.7

---

# assayComment: in vitro
# experimentalContext: human, THP1 cells, Cell viability (Fig. S7a)
Square brackets hold non-standard residues; d marks the D form. Peptide text beside a SMILES is read from it.
measuredParameter: viability at 48 h, 6.25 µM (%)
Answers are plain numbers, in %.

Task item: Tell me its viability at 48 h, 6.25 µM given CC(C)C[C@@H]1NC(=O)[C@H](CCCNC(=N)N)NC(=O)[C@H](C(C)C)NC(=O)[C@@H]2CCCN2C(=O)[C@@H](Cc2ccccc2)NC(=O)[C@H](CC(C)C)NC(=O)[C@H](CCCNC(=N)N)NC(=O)[C@H]([C@@H](C)O)NC(=O)[C@H](C)NC(=O)[C@@H](Cc2ccccc2)NC1=O [XQ2B] (cyclo([dF]ATRL[dF]PVRL)) as the entry.
Reply: 113

---

# systemUnderTest: recombinant human cGAS enzyme (hcGAS-ΔN, residues 147–522) (Homo sapiens)
# Construct: N-terminally truncated human cGAS (hcGAS-ΔN, residues 147–522); 6xHis-SUMO (N, cleaved yes); made in house; host or cells: Escherichia coli BL21 (DE3)
# Sequence (Q8N884 147-522, stated change not applied): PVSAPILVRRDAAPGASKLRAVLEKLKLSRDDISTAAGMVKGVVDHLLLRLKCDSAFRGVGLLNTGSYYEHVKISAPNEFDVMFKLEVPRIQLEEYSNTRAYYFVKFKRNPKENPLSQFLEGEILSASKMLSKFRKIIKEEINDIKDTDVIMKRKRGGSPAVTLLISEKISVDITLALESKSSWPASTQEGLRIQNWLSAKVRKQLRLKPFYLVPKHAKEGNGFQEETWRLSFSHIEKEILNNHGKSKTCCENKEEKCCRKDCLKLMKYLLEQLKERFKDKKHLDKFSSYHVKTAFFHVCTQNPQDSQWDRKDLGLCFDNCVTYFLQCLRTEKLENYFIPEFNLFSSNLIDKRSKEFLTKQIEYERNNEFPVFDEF
# assayComment: RNA-based fluorescent biosensor assay of cGAS activity (2',3'-cGAMP formation), in vitro screening
# Type: biochemical
# experimentalContext: peptides screened at 20 μM; Supplementary Table 1 / Fig. S5b; read-out: Inhibition %
Square brackets hold non-standard residues; d marks the D form. Peptide text beside a SMILES is read from it.
measuredParameter: inhibition at 20 µM (%)
Numbers only, in %.

Solved cases below.
{"compound": "CC(C)C[C@@H]1NC(=O)[C@H](C)NC(=O)[C@H](C(C)C)NC(=O)[C@@H]2CCCN2C(=O)[C@@H](Cc2ccccc2)NC(=O)[C@H](CC(C)C)NC(=O)[C@H](CCCNC(=N)N)NC(=O)[C@H](C(C)C)NC(=O)[C@@H]2CCCN2C(=O)[C@@H](Cc2ccccc2)NC1=O [XQ4, Cyclo (LfPVALfPVR)] (cyclo(AL[dF]PVRL[dF]PV))", "resultUnits": "%", "inhibition at 20 µM": 16}
{"compound": "CC(C)C[C@@H]1NC(=O)[C@H](CCCNC(=N)N)NC(=O)[C@H](CC(=O)O)NC(=O)[C@H](C(C)C)NC(=O)[C@@H]2CCCN2C(=O)[C@@H](Cc2ccccc2)NC(=O)[C@H](CC(C)C)NC(=O)[C@H]([C@@H](C)O)NC(=O)[C@@H]2CCCN2C(=O)[C@@H](Cc2ccccc2)NC1=O [XQ65, Cyclo (LfPTLfPVDR)] (cyclo(DRL[dF]PTL[dF]PV))", "resultUnits": "%", "inhibition at 20 µM": 0}

Switching to the query record.
Task item: # return recorded inhibition at 20 µM for input CC(C)C[C@@H]1NC(=O)[C@H](CC(=O)O)NC(=O)[C@H](C(C)C)NC(=O)[C@@H]2CCCN2C(=O)[C@@H](C)NC(=O)[C@H](C)NC(=O)[C@H](CCCNC(=N)N)NC(=O)[C@H](C(C)C)NC(=O)[C@@H]2CCCN2C(=O)[C@@H](Cc2ccccc2)NC1=O [XQ78, Cyclo (AaPVDLfPVR)] (cyclo(A[dA]PVDL[dF]PVR))
Reply: 0

These entries and their values trace back to paper PMC10545747.
